The reported measurements were obtained from patent US10351827B2.

system: iPS(Foreskin)-4-derived d8 HPTC-like cells; settings: human, 16 h, 10 μg/ml
ASSAY READOUT: IL6 Expression Levels

>  <COMPOUND>
NC[C@H]1O[C@H](O[C@H]2[C@H](O)[C@@H](O[C@H]3O[C@H](CO)[C@@H](O)[C@H](N)[C@H]3O)[C@H](N)C[C@@H]2N)[C@H](N)C[C@@H]1O

>  <TARGET SYSTEM>
iPS(Foreskin)-4-derived d8 HPTC-like cells

>  <ASSAY READOUT>
IL6 Expression Levels

>  <RESULT>
1.3

$$$$
>  <COMPOUND>
C[C@H]1O[C@H](O[C@H]2[C@H](O)[C@@H](O)[C@@H](O[C@H]3[C@H](O)[C@@H](O)C(O)O[C@@H]3CO)O[C@@H]2CO)[C@H](O)[C@@H](O)[C@@H]1N[C@H]1C=C(CO)[C@@H](O)[C@H](O)[C@H]1O (some centres unmarked)

>  <TARGET SYSTEM>
iPS(Foreskin)-4-derived d8 HPTC-like cells

>  <ASSAY READOUT>
IL6 Expression Levels

>  <RESULT>
1.5

$$$$
>  <COMPOUND>
NCC(=O)O

>  <TARGET SYSTEM>
iPS(Foreskin)-4-derived d8 HPTC-like cells

>  <ASSAY READOUT>
IL6 Expression Levels

>  <RESULT>
1.9

$$$$
>  <COMPOUND>
COc1ccc2[nH]cc(CCNC(C)=O)c2c1

>  <TARGET SYSTEM>
iPS(Foreskin)-4-derived d8 HPTC-like cells

>  <ASSAY READOUT>
IL6 Expression Levels

>  <RESULT>
6.1

$$$$
>  <COMPOUND>
NC(=O)c1ncn([C@@H]2O[C@H](CO)[C@@H](O)[C@H]2O)n1

>  <TARGET SYSTEM>
iPS(Foreskin)-4-derived d8 HPTC-like cells

>  <ASSAY READOUT>
IL6 Expression Levels

>  <RESULT>
1.5

$$$$

---

system: iPS(Foreskin)-4-derived d8 HPTC-like cells; settings: 1,000 μg/ml, overnight (16 h), qPCR, normalized to vehicle control (=1), mean +/- s.d., n=3
Strictly below 4 in IL6 Expression Levels: rule met. Otherwise: rule not met.

>  <COMPOUND>
[Bi+3].[Bi+3].[O-2].[O-2].[O-2] [Bismuth (III) oxide]

>  <CLASS NAME>
rule met

$$$$
>  <COMPOUND>
[Cl][Cu][Cl] [Copper (II) chloride]

>  <CLASS NAME>
rule not met

$$$$
>  <COMPOUND>
COc1cccc2c1cc([N+](=O)[O-])c1c(C(=O)O)cc3c(c12)OCO3 [Aristolochic acid]

>  <CLASS NAME>
rule not met

$$$$
>  <COMPOUND>
[Cl][Cd][Cl] [Cadmium chloride]

>  <CLASS NAME>
rule not met

$$$$
>  <COMPOUND>
O=[As]O[As]=O (stereo not drawn) [Arsenic (III) oxide]

>  <CLASS NAME>
rule not met

$$$$
>  <COMPOUND>
[Cl][Au] [Gold (I) chloride]

>  <CLASS NAME>
rule not met

$$$$
>  <COMPOUND>
[K+].[K+].[O]=[Cr](=[O])([O-])[O][Cr](=[O])(=[O])[O-] [Potassium dichromate]

>  <CLASS NAME>
rule met

$$$$
>  <COMPOUND>
CC(=O)[O-].CC(=O)[O-].[Pb+2] [Lead acetate]

>  <CLASS NAME>
rule not met

$$$$
>  <COMPOUND>
CN[C@H](CC(C)C)C(=O)N[C@H]1C(=O)N[C@@H](CC(N)=O)C(=O)N[C@H]2C(=O)N[C@H]3C(=O)N[C@H](C(=O)N[C@H](C(=O)O)c4cc(O)cc(O)c4-c4cc3ccc4O)[C@H](O)c3ccc(c(Cl)c3)Oc3cc2cc(c3O[C@@H]2O[C@H](CO)[C@@H](O)[C@H](O)[C@H]2O[C@H]2C[C@](C)(N)[C@H](O)[C@H](C)O2)Oc2ccc(cc2Cl)[C@H]1O [Vancomycin]

>  <CLASS NAME>
rule met

$$$$
